System: P388 leukemia ip, CD2F1 mice, survival T/C
TEST PROTOCOL: NCI In Vivo Anticancer Drug Screen. Data for tumor model P388 Leukemia (intraperitoneal) in CD2F1 (CDF1) mice
EXPERIMENTAL SETUP: endpoint: median survival time; dose: 100.0 mg/kg/injection; schedule: Q04DX002 (ip); vehicle: saline with Tween-80; higher = longer survival
Inconclusive results and toxic doses are left out.
Here, each record is paired with measured T/C data.
MEASURE: T/C

MOLECULE: CC(COC(=O)c1cccc([N+](=O)[O-])c1C(=O)O)c1ccccc1 (stereo not drawn)
OBSERVED: 98 % of control

MOLECULE: CCN=C(C)C1=C(O)c2ccccc2C1=O
OBSERVED: 97 % of control

MOLECULE: C/C(=N\NC(N)=Nc1ccc(Cl)cc1)c1ccc2c(c1)Cc1ccccc1-2
OBSERVED: 104 % of control

====

Catalogue of molecules with associated T/C
Test system: P388 leukemia ip, CD2F1 mice, survival T/C
TEST PROTOCOL: NCI In Vivo Anticancer Drug Screen. Data for tumor model P388 Leukemia (intraperitoneal) in CD2F1 (CDF1) mice
EXPERIMENTAL SETUP: endpoint: median survival time; dose: 200.0 mg/kg/injection; schedule: Q01DX005 (ip); vehicle: Klucel (hydroxypropylcellulose) (HPC); higher = longer survival
Description: The antitumor activity of compounds was measured in mice bearing transplantable tumors. Survival or tumor size were measured and the results are expressed as the measurement made in the treated group (T) divided by the measurement made in the vehicle treated control group (C). The tumor model used in this assay is P388 Leukemia (intraperitoneal) in CD2F1 (CDF1) mice
Inconclusive results and toxic doses are left out.

CPD SMILES: Cc1nc(Nc2c(C)cccc2C)c2c(C)c(Cc3ccccc3)[nH]c2n1
SYSTEM NAME: P388 leukemia ip, CD2F1 mice, survival T/C
T/C: 104 % of control

CPD SMILES: BrCCc1cc(Br)c(CCBr)cc1Br
SYSTEM NAME: P388 leukemia ip, CD2F1 mice, survival T/C
T/C: 107 % of control

CPD SMILES: N#CCCN(N)S(=O)(=O)c1ccccc1
SYSTEM NAME: P388 leukemia ip, CD2F1 mice, survival T/C
T/C: 98 % of control

CPD SMILES: CC1(C)OC(=O)C(=Cc2ccc[nH]2)C(=O)O1
SYSTEM NAME: P388 leukemia ip, CD2F1 mice, survival T/C
T/C: 107 % of control

CPD SMILES: CCOC(=O)/C(C#N)=C1/SC=C(N)N1c1ccccc1
SYSTEM NAME: P388 leukemia ip, CD2F1 mice, survival T/C
T/C: 91 % of control

CPD SMILES: Clc1ccc2nc(Cl)[nH]c2c1
SYSTEM NAME: P388 leukemia ip, CD2F1 mice, survival T/C
T/C: 99 % of control

CPD SMILES: Cc1cc2nc(-c3cc4cc(Cl)cc(Cl)c4oc3=O)[nH]c2cc1C
SYSTEM NAME: P388 leukemia ip, CD2F1 mice, survival T/C
T/C: 96 % of control

CPD SMILES: CCCn1c(C)nc2c(cnn2C)c1=O
SYSTEM NAME: P388 leukemia ip, CD2F1 mice, survival T/C
T/C: 111 % of control

====

System: P388 leukemia ip, CD2F1 mice, survival T/C
TEST PROTOCOL: NCI In Vivo Anticancer Drug Screen. Data for tumor model P388 Leukemia (intraperitoneal) in CD2F1 (CDF1) mice
EXPERIMENTAL SETUP: endpoint: median survival time; dose: 25.0 mg/kg/injection; schedule: Q01DX009 (ip); vehicle: saline
Inconclusive results and toxic doses are left out. Rule for the calls: active = survival T/C of 150% or more; inactive = T/C below 125% in these data.
Classes used: active, inactive

MOLECULE: Cc1ccc(S(=O)(=O)N/N=C/C(C)(c2ccccc2)c2ccccc2)cc1
CLASS NAME: inactive
//
MOLECULE: CCCCCC[N+]1(CC)CCCCC1
CLASS NAME: inactive
//
MOLECULE: O=C1CS/C(=N\C(=O)Nc2cccc(C(F)(F)F)c2)N1
CLASS NAME: inactive
//
MOLECULE: O=C(O)CC(O)(CC(=O)O)C(=O)O.O=C(O)CC(O)(CC(=O)O)C(=O)O.[O]=[Mo]1[O][Mo](=[O])[O]1
CLASS NAME: inactive
//
MOLECULE: O=C1NC(=O)C2=C1CCCC2O (configuration not stated)
CLASS NAME: inactive
//
MOLECULE: O=C1C=CC(=O)C(N(CCO)CCO)=C1
CLASS NAME: inactive
//
MOLECULE: O=N[O-].[Co].[NH2-].[NH2-].[NH2-].[NH2-].[NH2-]
CLASS NAME: inactive
//
MOLECULE: O=S(=O)(O)SNCCN1CCOCC1
CLASS NAME: inactive
//
MOLECULE: CN(C)CCC(CCc1ccccc1)OC(=O)c1ccccc1 (configuration not stated)
CLASS NAME: inactive
//
MOLECULE: NNC(=O)c1ccc2ccccc2c1O
CLASS NAME: inactive
//
MOLECULE: NC(=S)N/N=C/c1ncccc1O
CLASS NAME: active
//
MOLECULE: CN(C)CCC(=O)c1cccc([N+](=O)[O-])c1
CLASS NAME: inactive
//
MOLECULE: CN(C)c1cc(O)c(-n2c3cc(=O)c(N(C)C)cc-3nc3ccccc32)cc1O
CLASS NAME: inactive
//
MOLECULE: Nc1ccc(N)c(N)n1
CLASS NAME: inactive
//
MOLECULE: O=C(O)CCc1cccc(O)c1
CLASS NAME: inactive
//
MOLECULE: Cc1nc(N)c2ncn(C3OC(CO)C(O)C3O)c2n1 (configuration not stated)
CLASS NAME: inactive
//
MOLECULE: C=C/[Se](=C(/C#N)C(=O)c1ccccc1)c1ccccc1 (configuration not stated)
CLASS NAME: inactive
